Data provenance: paper PMC7332640

- ASSAY_PROTOCOL: In vitro phosphorylation of compounds in human whole blood
- Type: in vitro ADME
- RECORDED_CONDITIONS: read-out: Km (phosphorylation), 37 °C, 60 min, 1–100 μmol/L
MEASURED_PROPERTY: Km (µM)
Numeric only. Scale: µM

Data request: I'd like to know its Km. The molecule in question is CCc1nc(-c2ccc(-c3ccc(CC[C@@](C)(N)CO)cc3)cc2)co1.Cl
Data returned: 65.5

Data request: I'd like to know its Km. The molecule in question is CCCCCCCCc1ccc(CC[C@@](C)(N)CO)cc1.Cl
Data returned: 11.4

Data request: I'd like to know its Km. The molecule in question is CCCCCCCCc1ccc(CCC(N)(CO)CO)cc1 [FTY720, fingolimod, reference compound]
Data returned: 25.7

Data request: I'd like to know its Km. The molecule in question is CCCCCCCCc1ccc(CC[C@@H](N)CO)cc1.Cl
Data returned: 58.2

Data request: I'd like to know its Km. The molecule in question is CCc1nc(-c2ccc(-c3ccc(CC[C@@H](N)CO)cc3)cc2)co1.Cl
Data returned: 40.2

###

- ASSAY_PROTOCOL: In vitro phosphorylation of compounds in rat whole blood
- Assay type: in vitro ADME
MEASURED_PROPERTY: CLint (phosphorylation)

Data request: I'd like to know its CLint (phosphorylation). The molecule in question is CCCCCCCCc1ccc(CC[C@@](C)(N)CO)cc1.Cl [Compound 21]
Data returned: 1.545 µL/min

Data request: I'd like to know its CLint (phosphorylation). The molecule in question is CCCCCCCCc1ccc(CC[C@@H](N)CO)cc1.Cl [Compound 22]
Data returned: 3.121 µL/min

Data request: I'd like to know its CLint (phosphorylation). The molecule in question is CCCCCCCCc1ccc(CCC(N)(CO)CO)cc1 [FTY720, fingolimod, reference compound]
Data returned: 0.930 µL/min

Data request: I'd like to know its CLint (phosphorylation). The molecule in question is CCc1nc(-c2ccc(-c3ccc(CC[C@@](C)(N)CO)cc3)cc2)co1.Cl [Compound 23]
Data returned: 0.505 µL/min

Data request: I'd like to know its CLint (phosphorylation). The molecule in question is CCc1nc(-c2ccc(-c3ccc(CC[C@@H](N)CO)cc3)cc2)co1.Cl [Compound 24]
Data returned: 0.015 µL/min

###

- Assay type: in vivo
- RECORDED_CONDITIONS: Sprague–Dawley rats, oral 3 mg/kg
MEASURED_PROPERTY: phosphorylation level at 6 h after dosing (%)
Numeric only. Scale: %

Data request: I'd like to know its phosphorylation level at 6 h after dosing. The molecule in question is CCc1nc(-c2ccc(-c3ccc(CC[C@@H](N)CO)cc3)cc2)co1.Cl [Compound 24]
Data returned: 89

Data request: I'd like to know its phosphorylation level at 6 h after dosing. The molecule in question is CCCCCCCCc1ccc(CCC(N)(CO)CO)cc1 [FTY720, fingolimod, reference compound]
Data returned: 80

Data request: I'd like to know its phosphorylation level at 6 h after dosing. The molecule in question is CCCCCCCCc1ccc(CC[C@@](C)(N)CO)cc1.Cl [Compound 21]
Data returned: 95

Data request: I'd like to know its phosphorylation level at 6 h after dosing. The molecule in question is CCCCCCCCc1ccc(CC[C@@H](N)CO)cc1.Cl [Compound 22]
Data returned: 69

Data request: I'd like to know its phosphorylation level at 6 h after dosing. The molecule in question is CCc1nc(-c2ccc(-c3ccc(CC[C@@](C)(N)CO)cc3)cc2)co1.Cl [Compound 23]
Data returned: 94

###

Kindly state CLint (phosphorylation) for each of the entries shown.
- ASSAY_PROTOCOL: In vitro phosphorylation of compounds in human whole blood
- Format: in vitro ADME
Numeric only. Scale: µL/min

Data request: I'd like to know its CLint (phosphorylation). The molecule in question is CCc1nc(-c2ccc(-c3ccc(CC[C@@H](N)CO)cc3)cc2)co1.Cl
Data returned: 0.006

Data request: I'd like to know its CLint (phosphorylation). The molecule in question is CCCCCCCCc1ccc(CC[C@@H](N)CO)cc1.Cl
Data returned: 0.021

Data request: I'd like to know its CLint (phosphorylation). The molecule in question is CCCCCCCCc1ccc(CCC(N)(CO)CO)cc1 [FTY720, fingolimod, reference compound]
Data returned: 0.013

Data request: I'd like to know its CLint (phosphorylation). The molecule in question is CCCCCCCCc1ccc(CC[C@@](C)(N)CO)cc1.Cl
Data returned: 0.295

Data request: I'd like to know its CLint (phosphorylation). The molecule in question is CCc1nc(-c2ccc(-c3ccc(CC[C@@](C)(N)CO)cc3)cc2)co1.Cl
Data returned: 0.012
